Listed compounds paired with reported IC50
target: K-Ras G12C (Homo sapiens, UniProt P01116, G12C); assay: K-Ras G12C, SOS1, Raf RBD HTRF assay for inhibition of GTP exchange; settings: 18 hours preincubation with K-Ras G12C at room temperature; SOS1-mediated GTP exchange
Sequence (P01116 2-188 isoform P01116-2 G12C): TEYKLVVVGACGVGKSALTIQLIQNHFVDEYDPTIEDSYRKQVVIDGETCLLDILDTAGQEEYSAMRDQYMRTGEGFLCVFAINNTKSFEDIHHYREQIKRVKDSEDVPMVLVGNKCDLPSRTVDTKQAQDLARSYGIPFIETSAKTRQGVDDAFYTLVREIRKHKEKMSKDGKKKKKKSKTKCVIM

>  <compound>
C=C(F)C(=O)N1CCN(c2nc(OC[C@@H]3C[C@@H](F)CN3C)nc3c2C[C@H](C)[C@@H](c2c(F)c(N)cc(C)c2C(F)(F)F)C3)C[C@H]1CC#N (single isomer, unassigned) [Example 38a]

>  <IC50 / nM>
3600

$$$$
>  <compound>
C=CC(=O)N1CCN(c2nc(OC[C@@H]3CCCN3C)nc3c2C[C@H](C)[C@@H](c2c(F)c(N)cc(C)c2C(F)(F)F)C3)[C@@H](C)C1 (single isomer, unassigned) [Example 12a]

>  <IC50 / nM>
610

$$$$
>  <compound>
C=CC(=O)N1CCN(c2nc(OC[C@@H]3CCCN3C)nc3c2CC(C)C(c2c(C)ccc4[nH]ncc24)C3)CC1 (stereo partly shown) [Example 18a]

>  <IC50 / nM>
24

$$$$
>  <compound>
C=CC(=O)N1CCN(c2nc(OC[C@@H]3CCCN3C)nc3c2C[C@H](C(C)C)[C@@H](c2nc(N)cc(C)c2C(F)(F)F)C3)[C@@H](C)C1 (single isomer, unassigned) [Example 33b]

>  <IC50 / nM>
300

$$$$

###

target: K-Ras G12C (Homo sapiens, UniProt P01116, G12C); assay: Western blot assay for in cell alkylation of K-Ras G12C (HCC1171 cells); settings: 18 hours at 37° C., 7 point dose response
Sequence (P01116 1-188 isoform P01116-2 G12C): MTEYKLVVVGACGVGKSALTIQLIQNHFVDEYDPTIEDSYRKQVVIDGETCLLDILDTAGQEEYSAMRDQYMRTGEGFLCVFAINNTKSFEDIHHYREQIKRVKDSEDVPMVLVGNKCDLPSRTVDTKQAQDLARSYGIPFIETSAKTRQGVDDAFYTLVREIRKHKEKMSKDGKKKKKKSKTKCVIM
pEC50: −log10 of the molar value.
property-name: pEC50

>  <molecule>
C=C(F)C(=O)N1CCN(c2nc(OC[C@@H]3CCCN3C)nc3c2CC[C@@H](c2cc(O)cc4ccccc24)C3)C[C@@H]1CC#N (single isomer, unassigned) [Example 61e]

>  <property-name>
pEC50

>  <measured-result>
5.82

$$$$
>  <molecule>
C#CC[C@H]1CN(c2nc(OC[C@@H]3CCCN3C)nc3c2C[C@@H](C)[C@H](c2cccc4c2CCC4)C3)CCN1C(=O)C=C (single isomer, unassigned) [Example 40a]

>  <property-name>
pEC50

>  <measured-result>
7.00

$$$$
>  <molecule>
C=CC(=O)Oc1cc(C2CCc3c(nc(OC[C@@H]4CCCN4C)nc3N3CCN(C(=O)C=C)CC3)C2)c2ccccc2c1 (some centres unmarked) [Example 50a]

>  <property-name>
pEC50

>  <measured-result>
6.77

$$$$
>  <molecule>
C=CC(=O)N1CCN(c2nc(OC[C@@H]3C[C@@H](F)CN3C)nc3c2C[C@H](C)[C@@H](c2c(F)c(N)cc(C)c2C(F)(F)F)C3)[C@@H](C)C1 (single isomer, unassigned) [Example 36a]

>  <property-name>
pEC50

>  <measured-result>
6.57

$$$$
>  <molecule>
C=CC(=O)N1CCN(c2nc(OC[C@@H]3CCCN3C)nc3c2CCC(c2cc(O)cc4ccccc24)C3)[C@@H](CO)C1 (single isomer, unassigned) [Example 29a]

>  <property-name>
pEC50

>  <measured-result>
5.03

$$$$
>  <molecule>
C=CC(=O)N1CCN(c2nc(OC[C@@H]3C[C@@H](F)CN3C)nc3c2C[C@@H](C)[C@H](c2nc(NC)cc(C)c2C(F)(F)F)C3)[C@@H](C)C1 (single isomer, unassigned) [Example 5b]

>  <property-name>
pEC50

>  <measured-result>
6.74

$$$$
>  <molecule>
C=C(F)C(=O)N1CCN(c2nc(OC[C@@H]3CCCN3C)nc3c2CCC(c2cccc4ccccc24)C3)C[C@@H]1CC#N (single isomer, unassigned) [Example 47d]

>  <property-name>
pEC50

>  <measured-result>
7.52

$$$$
>  <molecule>
C=CC(=O)N1CCN(c2nc(OC[C@@H]3CCCN3C)nc3c2C[C@@H](C)[C@H](c2nc(N)ccc2C(F)(F)F)C3)[C@@H](C)C1 (single isomer, unassigned) [Example 41b]

>  <property-name>
pEC50

>  <measured-result>
8.09

$$$$

###

molecular target: K-Ras G12C (Homo sapiens, UniProt P01116, G12C); test: K-Ras G12C, SOS1, Raf RBD HTRF assay for inhibition of GTP exchange; format: biochemical; parameters: K-Ras G12C (residues 2-188) and SOS1 (residues 564-1049) had N-terminal 6-His; made in house; host or cells: E. coli; conditions: 18 hours preincubation with K-Ras G12C at room temperature; SOS1-mediated GTP exchange
Listed compounds paired with reported IC50

>  <compound>
C=CC(=O)N1CCN(c2ncnc3c2CC[C@@H](c2c(C)ccc4c2COC4)C3)CC1 (single isomer, unassigned)

>  <target>
K-Ras G12C (Homo sapiens, UniProt P01116, G12C)

>  <IC50>
> 50000 nM

$$$$
>  <compound>
C#CC[C@H]1CN(c2nc(OC[C@@H]3CCCN3C)nc3c2C[C@@H](C)[C@H](c2cccc4c2CCC4)C3)CCN1C(=O)C=C (single isomer, unassigned) [Example 40a]

>  <target>
K-Ras G12C (Homo sapiens, UniProt P01116, G12C)

>  <IC50>
< 10 nM

$$$$
>  <compound>
C=CC(=O)N1CCN(c2nc(OC[C@@H]3CCCN3C)nc3c2C[C@@H](C)[C@H](c2c(F)c(N)cc(C)c2C(F)(F)F)C3)[C@@H](C)C1 (single isomer, unassigned) [Example 12b]

>  <target>
K-Ras G12C (Homo sapiens, UniProt P01116, G12C)

>  <IC50>
< 10 nM

$$$$
>  <compound>
C=CC(=O)N1CCN(c2nc(OC[C@@H]3C[C@@H](F)CN3C)nc3c2C[C@H](C)[C@@H](c2nc(NC)cc(C)c2C(F)(F)F)C3)[C@@H](C)C1 (single isomer, unassigned)

>  <target>
K-Ras G12C (Homo sapiens, UniProt P01116, G12C)

>  <IC50>
> 20000 nM

$$$$
>  <compound>
C=CC(=O)N1C[C@H](C)N(c2nc(OC[C@@H]3CCCN3C)nc3c2C[C@@H](C)[C@H](c2cc(O)cc4ccccc24)C3)[C@@H](C)C1 (single isomer, unassigned) [Example 32a]

>  <target>
K-Ras G12C (Homo sapiens, UniProt P01116, G12C)

>  <IC50>
< 10 nM

$$$$
>  <compound>
C=CC(=O)N1CCN(c2nc(OC[C@@H]3C[C@@H](F)CN3C)nc3c2CC[C@H](c2cc(O)cc4ccccc24)C3)[C@@H](C)C1 (single isomer, unassigned) [Example 31a]

>  <target>
K-Ras G12C (Homo sapiens, UniProt P01116, G12C)

>  <IC50>
< 10 nM

$$$$
>  <compound>
C=CC(=O)N1CCN(c2ncnc3c2CC[C@@H](c2cccc4c2CCC4)C3)CC1 (single isomer, unassigned)

>  <target>
K-Ras G12C (Homo sapiens, UniProt P01116, G12C)

>  <IC50>
> 50000 nM

$$$$
